target: B1R of the rat (Rattus norvegicus, UniProt P97583)
Construct: expressed in transfected cells; host or cells: CHO K1 cells (rB1R cells)
assay-remarks: FLIPR Ca2+ influx assay, B1R antagonism, rat (rB1R CHO K1 cells)
Type: cell-based
measurement-parameters: test substance 10 μM; CHO K1 cells stably transfected with rat B1R; agonist Des-Arg9-bradykinin at EC80; % inhibition compared with maximum achievable inhibition
readout-type: B1R antagonism, rat [10 μM] % inhibition (%)

// solved cases for B1R antagonism, rat [10 μM] % inhibition follow
molecule	B1R antagonism, rat [10 μM] % inhibition [%]
CS(=O)(=O)N(CCOCC(=O)N1CCC(CCCN2CCCC2)(c2ccncc2)CC1)C(c1ccccc1)c1ccccc1 [Example 66]	99
COc1cc(C)c(S(=O)(=O)N(CCOCC(=O)N2CCC(CCCN3CCCC3)(c3ccncc3)CC2)Cc2ccccc2)c(C)c1	100
COc1cc(C)c(S(=O)(=O)N(CCOCC(=O)N2CCC(CCCN3CCCC3)(c3cccnc3)CC2)Cc2ccccc2)c(C)c1	101
O=C(COCC1CCCCN1S(=O)(=O)c1ccccc1C(F)(F)F)N1CCC(CCCN2CCCC2)(c2ccncc2)CC1 (stereo not shown)	100
COc1cc(C)c(S(=O)(=O)N2CCCCC2COCC(=O)N2CCC(CCCN3CCCC3)(c3cccnc3)CC2)c(C)c1 (stereo not shown) [Example 27]	102

[A] COc1cc(C)c(S(=O)(=O)N2CCCCC2CCCC(=O)N2CCC(CCCN3CCCC3)(c3ccncc3)CC2)c(C)c1 (stereo not shown)
[B] CS(=O)(=O)N(CCOCC(=O)N1CCC(CCCN2CCCC2)(c2ccncc2)CC1)C(c1ccccc1)c1ccccc1 [Example 65]
Exercise: When A and B are compared, which has the higher number for B1R antagonism, rat [10 μM] % inhibition? # reply format: chosen label
Solution: A
(A: 102%, B: 63%)

----------
target: B1R of the rat (Rattus norvegicus, UniProt P97583)
Construct: expressed in transfected cells; host or cells: CHO K1 cells (rB1R cells)
Sequence (P97583 1-337): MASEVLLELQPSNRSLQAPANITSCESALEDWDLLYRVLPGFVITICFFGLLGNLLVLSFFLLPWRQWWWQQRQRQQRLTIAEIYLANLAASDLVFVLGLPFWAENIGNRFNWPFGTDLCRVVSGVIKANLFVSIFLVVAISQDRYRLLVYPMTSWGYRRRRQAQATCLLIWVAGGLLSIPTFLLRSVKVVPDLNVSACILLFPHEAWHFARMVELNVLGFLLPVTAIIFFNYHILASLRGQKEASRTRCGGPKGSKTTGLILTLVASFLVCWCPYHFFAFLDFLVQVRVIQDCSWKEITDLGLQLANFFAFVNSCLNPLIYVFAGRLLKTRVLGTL
assay-remarks: FLIPR Ca2+ influx assay, B1R antagonism, rat (rB1R CHO K1 cells)
Type: cell-based
measurement-parameters: test substance 10 μM; CHO K1 cells stably transfected with rat B1R; agonist Des-Arg9-bradykinin at EC80; % inhibition compared with maximum achievable inhibition; read-out: B1R antagonism, rat [10 μM] % inhibition
readout-type: inhibition at 10 µM (%)

# count of solved cases: 2
compound	target	unit	readout-number
O=C(COCC1CCCCN1S(=O)(=O)c1ccccc1C(F)(F)F)N1CCC(CCCN2CCCC2)(c2cccnc2)CC1 (stereo not shown) [Example 41]	B1R of the rat (Rattus norvegicus, UniProt P97583)	%	104
COc1cc(C)c(S(=O)(=O)N(CCOCC(=O)N2CCC(CCCN3CCCC3)(c3ccncc3)CC2)Cc2ccccc2)c(C)c1 [Example 39]	B1R of the rat (Rattus norvegicus, UniProt P97583)	%	99

[I] Cc1cc(S(=O)(=O)N2CCCCC2CCC(=O)N2CCC(CCN(C)C)(c3cccnc3)CC2)c(C)cc1Cl (stereo not shown) [Example 11]
[II] O=C(CCCC1CCCCN1S(=O)(=O)c1cccc2ccccc12)N1CCC(CCCN2CCCC2)(c2ccncc2)CC1 (stereo not shown) [Example 64]
Exercise: Returns the identifier with the smallest measured inhibition at 10 µM among I and II . Pick one and reply with its label.
Solution: II
(II: 46%, I: 101%)
